target_system: CTL4/CTLMA2 (Anopheles gambiae, UniProt Q7Q7F7+Q7Q7F8)
Construct: disulfide-bridged heterodimer, pFastbac-Dual, C-terminal 6xHis on CTL4 (178-183), secreted from T.ni cells, signal peptides removed; 35 kDa
Sequence (Q7Q7F7 25-177, one chain of several): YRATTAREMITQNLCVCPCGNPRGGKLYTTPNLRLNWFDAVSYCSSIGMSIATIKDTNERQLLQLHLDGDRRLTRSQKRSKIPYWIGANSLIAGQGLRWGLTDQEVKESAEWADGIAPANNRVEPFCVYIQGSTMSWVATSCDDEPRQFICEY
method_summary: SPR steady-state affinity (Biacore T200, protein immobilised on CM5)
assay_setup: PBS, 1 mM CaCl2, 1 mM MgCl2
pKd: −log10 of the molar value.
The entries below are paired with their reported pKd.
measurement_name: pKd

>  <molecule>
CC(=O)N[C@H]1C(O)O[C@H](CO)[C@@H](O[C@@H]2O[C@@H](C)[C@@H](O)[C@@H](O)[C@@H]2O)[C@@H]1O[C@@H]1O[C@H](CO)[C@H](O)[C@H](OS(=O)(=O)O)[C@H]1O (stereo partly shown)

>  <recorded_measurement>
7.02

$$$$
>  <molecule>
CC(=O)N[C@H]1[C@@H](O[C@H]2[C@@H](O)[C@@H](CO)OC(O)[C@@H]2O[C@@H]2O[C@@H](C)[C@@H](O)[C@@H](O)[C@@H]2O)O[C@H](CO)[C@H](O)[C@@H]1O (stereo partly shown) [compound 386, A blood group trisaccharide]

>  <recorded_measurement>
5.25

$$$$
>  <molecule>
C[C@@H]1O[C@@H](O[C@H]2C(O)O[C@H](CO)[C@H](O)[C@@H]2O)[C@@H](O)[C@H](O)[C@@H]1O (stereo partly shown) [compound 479, H disaccharide]

>  <recorded_measurement>
4.58

$$$$
>  <molecule>
CC(=O)N[C@H]1[C@H](O[C@H]2[C@@H](O)[C@@H](CO)O[C@@H](O[C@H]3[C@H](O)[C@@H](O)C(O)O[C@@H]3CO)[C@@H]2O)O[C@H](CO)[C@@H](O)[C@@H]1O[C@@H]1O[C@H](CO)[C@H](O)[C@H](O)[C@H]1O (stereo partly shown)

>  <recorded_measurement>
5.09

$$$$
>  <molecule>
CC(=O)N[C@H]1C(O)O[C@H](CO)[C@@H](O)[C@@H]1O (stereo partly shown) [113,251, GlcNAc monosaccharide]

>  <recorded_measurement>
4.66

$$$$
>  <molecule>
CC(=O)N[C@H]1[C@H](O[C@H]2[C@@H](O)[C@@H](CO)O[C@@H](O[C@H]3[C@H](O)[C@@H](O)C(O)O[C@@H]3CO)[C@@H]2O)O[C@H](CO)[C@@H](O[C@@H]2O[C@H](CO)[C@H](O)[C@H](O)[C@H]2O)[C@@H]1O (stereo partly shown)

>  <recorded_measurement>
4.75

$$$$
>  <molecule>
CC(=O)N[C@H]1[C@H]([C@H](O)[C@H](O)CO)O[C@@](O[C@H]2[C@@H](O)[C@@H](CO)O[C@@H](O[C@H]3[C@H](O[C@@H]4O[C@@H](C)[C@@H](O)[C@@H](O)[C@@H]4O)[C@@H](NC(C)=O)C(O)O[C@@H]3CO)[C@@H]2O)(C(=O)O)C[C@@H]1O (stereo partly shown)

>  <recorded_measurement>
5.42

$$$$

----------
target_system: CTLMA2 (Anopheles gambiae)
Construct: 6xHis-tagged CTLMA2 monomer, secreted from T.ni insect cells (baculovirus, synthetic gene)
Sequence (Q7Q7F8 18-174): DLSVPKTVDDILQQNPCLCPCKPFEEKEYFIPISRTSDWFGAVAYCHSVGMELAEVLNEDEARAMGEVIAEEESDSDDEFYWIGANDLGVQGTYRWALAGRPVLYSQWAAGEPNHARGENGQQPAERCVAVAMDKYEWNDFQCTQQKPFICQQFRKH
method_summary: SPR steady-state affinity (Biacore T200, protein immobilised on CM5)
assay_setup: PBS, 1 mM CaCl2, 1 mM MgCl2

>  <compound>
C[C@@H]1O[C@@H](O[C@H]2C(O)O[C@H](CO)[C@H](O)[C@@H]2O)[C@@H](O)[C@H](O)[C@@H]1O (some centres unmarked) [compound 479, H disaccharide]

>  <Kd (µM)>
10.4

$$$$
>  <compound>
CC(=O)N[C@H]1[C@H]([C@H](O)[C@H](O)CO)O[C@@](O[C@H]2[C@@H](O)[C@@H](CO)O[C@@H](O[C@H]3[C@H](O[C@@H]4O[C@@H](C)[C@@H](O)[C@@H](O)[C@@H]4O)[C@@H](NC(C)=O)C(O)O[C@@H]3CO)[C@@H]2O)(C(=O)O)C[C@@H]1O (some centres unmarked)

>  <Kd (µM)>
0.619

$$$$
